Values were extracted from PubChem BioAssay (NCI).

Property: TGI; scope: individual compounds
# System: DU-145 prostate
# protocol details: NCI tumour cell line growth inhibition, 48 h
Please reply with the bare figure in µM and do not write the unit itself.

// below: answered compounds
CC(C)(Cl)C(Cl)CC/C(CBr)=C(\Cl)CBr (stereo unspecified) ... 20.1
CN(C)c1ccc2cc3c(cc2c1)Oc1ccccc1N3.[Cl][Zn][Cl] ... 20.9
[O-][N+]1=C(c2ccccc2)/C(=C2/C(c3ccccc3)=[N+]([O-])c3ccccc32)Cc2ccccc21 ... 63.8

Item CN(CCCNC(=O)c1cn(C)c2c1ccc1ccccc12)CCCNC(=O)c1cn(C)c2c1ccc1ccccc12 with DU-145 prostate - TGI? 3.08

Item COc1ccc2nc3c([N+](=O)[O-])ccc4c3c(c2c1)N=CN4CCN(C)C with DU-145 prostate - TGI? 15.8

Item CCCCCCCCCCCCCC(=O)NO with DU-145 prostate - TGI? 29.6

Item Cc1nnc(N)nc1C/C=C/C(C)Sc1ccc(Cl)cc1 (stereo unspecified) with DU-145 prostate - TGI? 38.1

Item COc1ccc(-c2ccc(-c3ccc(C(=N)N)cc3)s2)cc1Cl with DU-145 prostate - TGI? 3.06

Item c1cc2cc(Cc3ccc4[nH]ccc4c3)ccc2[nH]1 with DU-145 prostate - TGI? 56.2

---

Property: TGI; scope: individual compounds
# System: SK-MEL-5 melanoma
# protocol details: NCI tumour cell line growth inhibition, 48 h
Please reply with the bare figure in µM and do not write the unit itself.

// below: answered compounds
CC(c1ccccc1)n1c2ccccc2c2c(N)ncnc21 (configuration not stated) ... 33.9
Cl.[O-]c1cccc2cccnc12.[O-]c1cccc2cccnc12.[O-]c1cccc2cccnc12.[O-]c1cccc2cccnc12.[Ti+4] ... 2.46
C=C1C(=O)O[C@H]2[C@H]1CC/C(CNC(=O)C(C)c1ccc(CC(C)C)cc1)=C\CC[C@@]1(C)O[C@@H]21 (some centres not stated) ... 3.08
CC(C)c1ccc(C(c2c(O)c3ccccc3oc2=O)c2c(O)c3ccccc3oc2=O)cc1 ... 31.3
COc1cccc(C2c3cc4c(cc3OC(NNC(N)=O)C2C)OCO4)c1OC (configuration not stated) ... 43.9

Entry under review: CCOC1Oc2ccccc2C(=O)/C1=C\Nc1ccc(C(=O)O)c(O)c1 (configuration not stated) . Reported TGI? 37.4

Entry under review: CN(CCCNC(=O)c1cn(C)c2c1ccc1ccccc12)CCCNC(=O)c1cn(C)c2c1ccc1ccccc12 . Reported TGI? 3.33

Entry under review: CCCCCC1CC(C(C)=O)CN1c1ccc(F)cc1 (configuration not stated) . Reported TGI? 38.3

---

# Test system: SK-MEL-5 melanoma
# protocol details: NCI tumour cell line growth inhibition, 48 h; in the data active = GI50 below about 0.43 µM; inactive = the rest
Choose the fitting class; nothing outside 1 for active, 0 for inactive is accepted.

CN(CO)c1nc(N(C)CO)nc(N(C)CO)n1 ... 0
Cc1cc(C(=O)CC(Cl)=C(Cl)Cl)c(Cl)cc1Cl ... 0
CCCn1cc(/C=N\N=C2\C(=O)Nc3ccc(C)cc32)c2ccccc21 ... 0
Oc1ccccc1/C=N\Nc1ccccc1 ... 0
O=C(CS(=O)c1nc2ccccc2nc1-c1ccccc1)Nc1ccc(Cl)cc1 (stereo not drawn) ... 0

Tell me the recorded outcome of this test for CC[C@H](C)C(=O)O[C@H]1CCC=C2C=C[C@H](C)[C@H](CC[C@@H]3C[C@@H](O)CC(=O)O3)[C@H]21 . 0

Tell me the recorded outcome of this test for CN1CCN(C(=O)[C@@]2(C)CC[C@]3(C)CC[C@]4(C)C(=CC[C@@H]5[C@@]6(C)CC[C@H](OC(=O)c7cccnc7)C(C)(C)[C@@H]6CC[C@]54C)[C@@H]3C2)CC1 . 0

Tell me the recorded outcome of this test for COc1ccc(C(=O)/C=C/c2c(C(F)(F)F)nc3ccccn23)cc1OC . 0

Tell me the recorded outcome of this test for C=C1C(=O)O[C@H]2[C@H]1CC/C(CNC(=O)C(C)c1ccc(CC(C)C)cc1)=C\CC[C@@]1(C)O[C@@H]21 (stereo partly drawn) . 0

Tell me the recorded outcome of this test for COc1ccc(Cl)cc1Nc1nc(C(F)(F)F)ccc1C(=O)N/N=C/c1ccccc1Cl . 0

Tell me the recorded outcome of this test for CCCCNP1(NCCCC)=NP(NCCCC)(NCCCC)=NP(NCCCC)(NCCCC)=NP(NCCCC)(NCCCC)=N1 . 0

Tell me the recorded outcome of this test for CCc1c2c(nc3ccc(OC(=O)OCc4ccc(B5OC(C)(C)C(C)(C)O5)cc4)cc13)-c1cc3c(c(=O)n1C2)COC(=O)[C@]3(O)CC . 1

Tell me the recorded outcome of this test for CCN(CC)CCOc1ccc(NC(=O)C(C(C)C)N2C(=O)/C(=C/c3ccc(Br)cc3)SC2=S)cc1 (stereo not drawn) . 0

Tell me the recorded outcome of this test for O=C(O)CC(S)C(=O)O.[Li+].[Sb] (stereo not drawn) . 0

Tell me the recorded outcome of this test for NCCNc1ccc(NCCN)c2c1C(=O)c1c(O)ccc(O)c1C2=O . 1

Tell me the recorded outcome of this test for N#Cc1ccc(C(=O)c2cnn(-c3ccc(F)cc3)c2N)cc1 . 0

Tell me the recorded outcome of this test for COc1ccc(-c2nsc3c2NC(=O)CC3c2cccc(F)c2)cc1 (stereo not drawn) . 0

Tell me the recorded outcome of this test for C#Cc1cccc(Nc2ncnc3ccc(-c4cnc(N)nc4)cc23)c1 . 0
